Where do these numbers come from? They come from ChEMBL document CHEMBL1250476.

tested on: Candida albicans; experiment: Antifungal activity against Candida albicans Y0109 after 24 hrs by micro-broth dilution method; assay type: functional; conditions: Y0109, 24 h
Overview of reported MIC across a group of compounds:

| COMPOUND | UNIT ABBREVIATION | PREFIX OPERATOR | MIC |
| --- | --- | --- | --- |
| CC(C)N(Cc1cn(Cc2ccccc2)nn1)CC(O)(Cn1cncn1)c1ccc(F)cc1F (stereo not drawn) | µg/mL | = | 0.0039 |
| CCc1ccc(Cn2cc(CN(CC(O)(Cn3cncn3)c3ccc(F)cc3F)C3CC3)nn2)cc1 (stereo not drawn) | µg/mL | = | 0.25 |
| CC(C)N(Cc1cn(Cc2ccc(Cl)cc2)nn1)CC(O)(Cn1cncn1)c1ccc(F)cc1F (stereo not drawn) | µg/mL | = | 0.0625 |
| OC(CN(Cc1cn(Cc2ccc(Cl)cc2)nn1)C1CC1)(Cn1cncn1)c1ccc(F)cc1F (stereo not drawn) | µg/mL | = | 0.25 |
| CC(C)N(Cc1cn(Cc2ccc(F)cc2)nn1)CC(O)(Cn1cncn1)c1ccc(F)cc1F (stereo not drawn) | µg/mL | = | 0.25 |
| CC(C)N(Cc1cn(Cc2ccccc2[N+](=O)[O-])nn1)CC(O)(Cn1cncn1)c1ccc(F)cc1F (stereo not drawn) | µg/mL | = | 0.0625 |
| CCCCCCCCCCCCCCCCn1cc(CN(CC(O)(Cn2cncn2)c2ccc(F)cc2F)C(C)C)nn1 (stereo not drawn) | µg/mL | = | 0.0625 |
| OC(CN(Cc1cn(Cc2ccccc2F)nn1)C1CC1)(Cn1cncn1)c1ccc(F)cc1F (stereo not drawn) | µg/mL | = | 0.0625 |
| CC(=O)N1CCN(c2ccc(OCC3COC(Cn4ccnc4)(c4ccc(Cl)cc4Cl)O3)cc2)CC1 (stereo not drawn) [KETOCONAZOLE] | µg/mL | < | 0.125 |
| OC(CN(Cc1cn(Cc2ccc(F)cc2)nn1)C1CC1)(Cn1cncn1)c1ccc(F)cc1F (stereo not drawn) | µg/mL | = | 0.25 |
| CC(C)N(Cc1cn(Cc2cccc(C#N)c2)nn1)CC(O)(Cn1cncn1)c1ccc(F)cc1F (stereo not drawn) | µg/mL | = | 0.0625 |
| OC(CN(Cc1cn(Cc2cccc(Br)c2)nn1)C1CC1)(Cn1cncn1)c1ccc(F)cc1F (stereo not drawn) | µg/mL | = | 0.0156 |
| OC(CN(Cc1cn(Cc2cccc(F)c2)nn1)C1CC1)(Cn1cncn1)c1ccc(F)cc1F (stereo not drawn) | µg/mL | = | 0.0625 |
| C[C@@H](c1ncncc1F)[C@](O)(Cn1cncn1)c1ccc(F)cc1F [VORICONAZOLE] | µg/mL | < | 0.125 |
| N#Cc1ccc(Cn2cc(CN(CC(O)(Cn3cncn3)c3ccc(F)cc3F)C3CC3)nn2)cc1 (stereo not drawn) | µg/mL | = | 0.0625 |
| CC(C)N(Cc1cn(Cc2c(Cl)cccc2Cl)nn1)CC(O)(Cn1cncn1)c1ccc(F)cc1F (stereo not drawn) | µg/mL | < | 0.125 |
| OC(CN(Cc1cn(C2CCCCC2)nn1)C1CC1)(Cn1cncn1)c1ccc(F)cc1F (stereo not drawn) | µg/mL | = | 0.0625 |
| CC(C)N(Cc1cn(C2CCCCC2)nn1)CC(O)(Cn1cncn1)c1ccc(F)cc1F (stereo not drawn) | µg/mL | = | 0.0625 |
